All figures here come from paper PMC2756588.

Target: T1, Sla1-2, P32790
T1 sequence (P32790 60-140, looked up): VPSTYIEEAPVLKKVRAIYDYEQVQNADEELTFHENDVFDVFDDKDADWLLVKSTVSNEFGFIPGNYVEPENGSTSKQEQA
Experiment: SPOT array
Conditions: median of control spots 712

{"Binder": "LLLLFVPDSPYDPAI", "SPOT intensity": 0}
{"Binder": "RRARRQMGIPTISQV", "SPOT intensity": 15}
{"Binder": "RSKRLFPVRPMATAH", "SPOT intensity": 0}
{"Binder": "HKVLRPFLLRRLKKD", "SPOT intensity": 0}
{"Binder": "HVRRSILALPLGVLL", "SPOT intensity": 0}
{"Binder": "DTFLPPPPPPPSNFE", "SPOT intensity": 0}
{"Binder": "DKSRPPRPPPKPLHL", "SPOT intensity": 0}
{"Binder": "AAHKTKPSIPPKKVE", "SPOT intensity": 0}
{"Binder": "NLDRSKISLPDFDDE", "SPOT intensity": 1}
{"Binder": "STKKPRPPVKSKPKH", "SPOT intensity": 0}
{"Binder": "GKFIPSRPAPKPPSS", "SPOT intensity": 0}
{"Binder": "NMLSRPRLAKLPSIR", "SPOT intensity": 1}
{"Binder": "VPPVPLPFGIPPFPM", "SPOT intensity": 1}
{"Binder": "SRSKPLPLTPNSKYN", "SPOT intensity": 3}
{"Binder": "AAAPKHAPPPVPNET", "SPOT intensity": 0}
{"Binder": "NAGIRPKFILALNDE", "SPOT intensity": 1}
{"Binder": "GSKSGPPPRPKKPST", "SPOT intensity": 1}
{"Binder": "QPPLPSSAPPIPTSH", "SPOT intensity": 0}
